Test system: PANC-1 complex spheroid growth, percent test/control
measurement_description: Anticancer human tumor PANC-1 cell line growth inhibition [Asc];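 also: spheroids exposed to agents for 7 days; percent viability relative to DMSO vehicle wells taken as 100%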
condition_parameters: second compound 1 µM; first compound 3.16 µM; active compounds read low
Source text: Multicellular complex tumor spheroid response to apoptosis pathway targeting inhibitors Alrizomadlin, Pelcitoclax, and Dasminapant in combination with a variety of drugs and investigational agents in selected tumor cell lines […] Compounds. […] If the clinical Cmax for an agent had not been determined, the highest concentration tested was 10 microM. […]
In this section we review reported viability, T/C values for a set of compounds.
The response must be a number in % with no trailing unit.

Use these answered entries as a reference point.
compound	target_entity	viability, T/C / %
O=C(c1cc(Cc2n[nH]c(=O)c3ccccc23)ccc1F)N1CCN(C(=O)C2CC2)CC1 + CNC(C)C(=O)NC1CN(S(=O)(=O)c2cccc(S(=O)(=O)N3CCC4CCC(C(=O)NC(c5ccccc5)c5ccccc5)N4C(=O)C(NC(=O)C(C)NC)C3)c2)CCC2CCC(C(=O)NC(c3ccccc3)c3ccccc3)N2C1=O	PANC-1 complex spheroid growth, percent test/control	89.9
C#Cc1c(F)ccc2cc(O)cc(-c3ncc4c(N5CC6CCC(C5)N6)nc(OCC56CCCN5CC(F)C6)nc4c3F)c12 (stereo not drawn) + CNC(C)C(=O)NC1CN(S(=O)(=O)c2cccc(S(=O)(=O)N3CCC4CCC(C(=O)NC(c5ccccc5)c5ccccc5)N4C(=O)C(NC(=O)C(C)NC)C3)c2)CCC2CCC(C(=O)NC(c3ccccc3)c3ccccc3)N2C1=O	PANC-1 complex spheroid growth, percent test/control	77.8
C=CC(=O)N1CCN(c2nc(=O)n(-c3c(C)ccnc3C(C)C)c3nc(-c4c(O)cccc4F)c(F)cc23)C(C)C1 (stereo not drawn) + CNC(C)C(=O)NC1CN(S(=O)(=O)c2cccc(S(=O)(=O)N3CCC4CCC(C(=O)NC(c5ccccc5)c5ccccc5)N4C(=O)C(NC(=O)C(C)NC)C3)c2)CCC2CCC(C(=O)NC(c3ccccc3)c3ccccc3)N2C1=O	PANC-1 complex spheroid growth, percent test/control	97.1
C=CC(=O)N1CCN(c2nc(=O)n(-c3c(C)ccnc3C(C)C)c3nc(-c4c(O)cccc4F)c(F)cc23)C(C)C1 (stereo not drawn) + Cc1c(S(C)(=O)=O)c(-c2cc(F)cc(N3CCN(c4ccc(NS(=O)(=O)c5ccc(NC(CCN6CCC(C(=O)OCCCP(=O)(O)O)CC6)CSc6ccccc6)c(S(=O)(=O)C(F)(F)F)c5)cc4)CC3)c2)c(-c2ccc(Cl)cc2)n1C(C)C	PANC-1 complex spheroid growth, percent test/control	95.6
C=C(F)C(=O)N1CCN(c2nc(OCC3CCCN3C)nc3c2CCN(c2cccc4cccc(Cl)c24)C3)CC1CC#N (stereo not drawn) + CNC(C)C(=O)NC1CN(S(=O)(=O)c2cccc(S(=O)(=O)N3CCC4CCC(C(=O)NC(c5ccccc5)c5ccccc5)N4C(=O)C(NC(=O)C(C)NC)C3)c2)CCC2CCC(C(=O)NC(c3ccccc3)c3ccccc3)N2C1=O	PANC-1 complex spheroid growth, percent test/control	63.1
C#Cc1c(F)ccc2cc(O)cc(-c3ncc4c(N5CC6CCC(C5)N6)nc(OCC56CCCN5CC(F)C6)nc4c3F)c12 (stereo not drawn) + Cc1c(S(C)(=O)=O)c(-c2cc(F)cc(N3CCN(c4ccc(NS(=O)(=O)c5ccc(NC(CCN6CCC(C(=O)OCCCP(=O)(O)O)CC6)CSc6ccccc6)c(S(=O)(=O)C(F)(F)F)c5)cc4)CC3)c2)c(-c2ccc(Cl)cc2)n1C(C)C	PANC-1 complex spheroid growth, percent test/control	73.7
C=C(F)C(=O)N1CCN(c2nc(OCC3CCCN3C)nc3c2CCN(c2cccc4cccc(Cl)c24)C3)CC1CC#N (stereo not drawn) + Cc1c(S(C)(=O)=O)c(-c2cc(F)cc(N3CCN(c4ccc(NS(=O)(=O)c5ccc(NC(CCN6CCC(C(=O)OCCCP(=O)(O)O)CC6)CSc6ccccc6)c(S(=O)(=O)C(F)(F)F)c5)cc4)CC3)c2)c(-c2ccc(Cl)cc2)n1C(C)C	PANC-1 complex spheroid growth, percent test/control	88.1

Next up:
Data request, read-out viability, T/C, for O=C(c1cc(Cc2n[nH]c(=O)c3ccccc23)ccc1F)N1CCN(C(=O)C2CC2)CC1 + Cc1c(S(C)(=O)=O)c(-c2cc(F)cc(N3CCN(c4ccc(NS(=O)(=O)c5ccc(NC(CCN6CCC(C(=O)OCCCP(=O)(O)O)CC6)CSc6ccccc6)c(S(=O)(=O)C(F)(F)F)c5)cc4)CC3)c2)c(-c2ccc(Cl)cc2)n1C(C)C
111
